# Lookup of reported inhibition keyed by entry
testedSystem: NAD-dependent protein deacetylase sirtuin-2 (Homo sapiens) (UniProt Q8IXJ6)
protocolNotes: Inhibition of recombinant human full length SIRT2 using fluorescent ZMAL as substrate at 50 uM after 4 hrs by homogeneous fluorescent deacetylase assay

Example results:
>>> df
                                entrysmiles  assayendpoint  experimentalresult
0                N#Cc1ccc2c(c1)CCc1ccccc1N2     inhibition               < 25%
1  NC(=O)c1ccc2c(c1)CCc1cccc([N+](=O)[O-])c1N2     inhibition               < 25%
2             OCc1ccc2c(c1)CCc1cccc(CO)c1N2     inhibition               < 25%
3             OCc1ccc2c(c1)CCc1cc(CO)ccc1N2     inhibition               < 25%

Value wanted: inhibition (NAD-dependent protein deacetylase sirtuin-2 (Homo sapiens) (UniProt Q8IXJ6)) of entry `NC(=O)c1ccc2c(c1)CCc1cccc(CO)c1N2`
< 25%

Value wanted: inhibition (NAD-dependent protein deacetylase sirtuin-2 (Homo sapiens) (UniProt Q8IXJ6)) of entry `N#Cc1ccc2c(c1)CCc1cc([N+](=O)[O-])ccc1N2`
< 25%

Value wanted: inhibition (NAD-dependent protein deacetylase sirtuin-2 (Homo sapiens) (UniProt Q8IXJ6)) of entry `c1ccc2c(c1)CCc1ccccc1N2`
< 25%

---

testedSystem: NAD-dependent protein deacetylase sirtuin-2 (Homo sapiens, UniProt Q8IXJ6)
Sequence (Q8IXJ6 whole entry): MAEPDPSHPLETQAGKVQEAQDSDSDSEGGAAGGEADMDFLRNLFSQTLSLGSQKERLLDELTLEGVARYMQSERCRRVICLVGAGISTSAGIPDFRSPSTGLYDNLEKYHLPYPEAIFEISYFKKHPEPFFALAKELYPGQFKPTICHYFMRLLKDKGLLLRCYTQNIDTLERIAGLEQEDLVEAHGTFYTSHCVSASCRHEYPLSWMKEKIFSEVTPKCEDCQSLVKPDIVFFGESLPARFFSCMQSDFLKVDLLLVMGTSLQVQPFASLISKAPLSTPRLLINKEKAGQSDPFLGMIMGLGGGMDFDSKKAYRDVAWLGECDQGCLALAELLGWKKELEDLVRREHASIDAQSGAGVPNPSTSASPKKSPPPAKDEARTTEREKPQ
protocolNotes: Inhibition of recombinant human full length SIRT2 using fluorescent ZMAL as substrate after 4 hrs by homogeneous fluorescent deacetylase assay
Exam item: assign condition met to entries whose IC50 is below 40 µM and condition not met to entries at or above 40 µM. Note that a value of exactly 40 µM receives condition not met.

The examples below pair each entry with its known result.
>>> df
                                   molecule         labelvalue
0  CN1c2ccc(C(N)=O)cc2CCc2cc([N+](=O)[O-])ccc21  condition not met
1     CC(C)(C)NC(=O)c1ccc2c(c1)CCc1ccccc1N2  condition not met

Record CC(C(=O)Nc1cccc(/N=C/c2c(O)ccc3ccccc23)c1)c1ccccc1 (stereo not given) [SALERMIDE] : is its IC50 strictly below 40 µM?
condition not met

Record `NC(=O)c1ccc2c(c1)CCc1cc([N+](=O)[O-])ccc1N2` : is its IC50 strictly below 40 µM?
condition met

Record `CC(C)(C)NS(=O)(=O)c1ccc2c(c1)Nc1ccccc1CC2` : is its IC50 strictly below 40 µM?
condition met

---

Test system: MCF7
protocolNotes: Cell cycle arrest in human MCF7 cells assessed as accumulation at G1 phase at 50 uM after 24 hrs by flow cytometry (reference value: 43.5 %)
Type: functional
Exam item: assign Fulfilled to entries whose Activity is below 60% and Not fulfilled to entries at or above 60%. Note that a value of exactly 60% receives Not fulfilled.

>>> df
                                   compound     labelvalue
0  CC(NC(=O)c1ccccc1/N=C/c1c(O)ccc2ccccc12)c1ccccc1 (stereo not given)  Not fulfilled

Record `NC(=O)c1ccc2c(c1)CCc1cc([N+](=O)[O-])ccc1N2` : is its Activity strictly below 60%?
Fulfilled

Record NC(=O)C1CCCc2c1[nH]c1ccc(Cl)cc21 (stereo not given) : is its Activity strictly below 60%?
Not fulfilled

Record CC(C(=O)Nc1cccc(/N=C/c2c(O)ccc3ccccc23)c1)c1ccccc1 (stereo not given) [SALERMIDE] : is its Activity strictly below 60%?
Fulfilled

Record `O=C(Nc1cccc(Br)c1)c1cccc(S(=O)(=O)N2CCCCCC2)c1` : is its Activity strictly below 60%?
Fulfilled

---

testedSystem: NAD-dependent protein deacetylase sirtuin-1 (Homo sapiens) (UniProt Q96EB6)
protocolNotes: Inhibition of SIRT1 in human MCF7 cells assessed as increase in acetylation of p53 at lys 382 at 50 uM after 24 hrs by Western blot analysis
Format: cell-based
Active and inactive are the calls of the source. The rule behind the calls is not given here.
Choose one outcome from this list and give only that: y = active, n = inactive

The examples below pair each entry with its known result.
In [3]: df
Out[3]:
                                   compound  labelvalue
0  NC(=O)c1ccc2c(c1)CCc1cc([N+](=O)[O-])ccc1N2           n
1  CC(C(=O)Nc1cccc(/N=C/c2c(O)ccc3ccccc23)c1)c1ccccc1 (centres undefined) [SALERMIDE]           y
2  O=C(Nc1cccc(Br)c1)c1cccc(S(=O)(=O)N2CCCCCC2)c1           y

Assay outcome for CC(NC(=O)c1ccccc1/N=C/c1c(O)ccc2ccccc12)c1ccccc1 (centres undefined) [SIRTINOL] : what was it?
y

---

testedSystem: NAD-dependent protein deacetylase sirtuin-1 (Homo sapiens)
Sequence (Q96EB6 whole entry): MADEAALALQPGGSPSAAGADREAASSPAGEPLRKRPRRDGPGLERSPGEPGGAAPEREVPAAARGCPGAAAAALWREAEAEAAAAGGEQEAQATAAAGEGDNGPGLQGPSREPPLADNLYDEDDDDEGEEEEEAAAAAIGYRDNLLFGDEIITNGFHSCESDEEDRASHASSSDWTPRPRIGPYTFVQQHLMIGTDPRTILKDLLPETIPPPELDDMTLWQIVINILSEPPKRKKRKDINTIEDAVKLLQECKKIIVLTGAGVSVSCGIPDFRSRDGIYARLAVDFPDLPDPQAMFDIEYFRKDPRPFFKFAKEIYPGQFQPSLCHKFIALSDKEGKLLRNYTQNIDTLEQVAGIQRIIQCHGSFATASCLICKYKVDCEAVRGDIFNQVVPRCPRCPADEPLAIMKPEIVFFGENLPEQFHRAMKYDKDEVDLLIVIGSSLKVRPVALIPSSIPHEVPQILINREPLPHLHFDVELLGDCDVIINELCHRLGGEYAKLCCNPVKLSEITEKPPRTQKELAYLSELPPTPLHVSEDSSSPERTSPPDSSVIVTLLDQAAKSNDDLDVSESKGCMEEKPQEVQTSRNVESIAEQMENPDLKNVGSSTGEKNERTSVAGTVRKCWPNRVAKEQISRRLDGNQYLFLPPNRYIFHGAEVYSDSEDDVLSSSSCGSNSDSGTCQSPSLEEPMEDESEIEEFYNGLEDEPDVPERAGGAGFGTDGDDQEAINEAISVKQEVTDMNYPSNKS
assayEndpoint: IC50

Item CC(C(=O)Nc1cccc(/N=C/c2c(O)ccc3ccccc23)c1)c1ccccc1 (stereo unspecified) [SALERMIDE] has what recorded IC50?
76 µM
